Recorded below: Ki, system D(3) dopamine receptor (Homo sapiens).

>  <compound>
COc1ccc2c(c1O)-c1c3c(cc4c1[C@H](C2)N(C)CC4)OCO3

>  <Ki, nM>
5200

$$$$
>  <compound>
CC(C)C[C@H]1C(=O)N2CCC[C@H]2[C@]2(O)O[C@](NC(=O)[C@@H]3C=C4c5cccc6[nH]c(Br)c(c56)C[C@H]4N(C)C3)(C(C)C)C(=O)N12

>  <Ki, nM>
2.1

$$$$
>  <compound>
CCCN(CCC)C1CCc2cc(O)c(O)cc2C1 (racemic)

>  <Ki, nM>
0.68

$$$$
>  <compound>
CCCN1CCc2cc(F)cc3c2C1Cc1ccc(O)c(O)c1-3 (stereo unspecified)

>  <Ki, nM>
0.21

$$$$
>  <compound>
CCCN(CCC)C1C=Cc2c(OC)cccc2C1C (stereo unspecified)

>  <Ki, nM>
4.9

$$$$
>  <compound>
Cc1cc2c(cc1C)CC(N)CC2 (stereo unspecified)

>  <Ki, nM>
17

$$$$
